Listing of Ki toward Stromelysin-1 (Homo sapiens), each taken from a published source.
// assign Criterion met if Ki falls strictly below 400 nM, else Criterion not met (ties count as Criterion not met)

Report whether reported Ki is lower than 400 nM (strictly) for O=C(CC(NC(=O)Cc1ccccc1)c1ccccc1)Nc1n[nH]c(=S)s1 (centres unmarked)
Criterion not met

Report whether reported Ki is lower than 400 nM (strictly) for `CCCCS(=O)(=O)CC(CS(=O)(=O)CCCC)C(=O)NO`
Criterion not met

Report whether reported Ki is lower than 400 nM (strictly) for `CC(C)C[C@@H](C(=O)N[C@H](C(=O)Nc1ccncc1)C(C)(C)C)[C@](O)(CO)C(=O)NO`
Criterion met

Report whether reported Ki is lower than 400 nM (strictly) for `CC(C)C[C@@]1([C@@H](CCN2Cc3cc(F)ccc3C2=O)C(=O)NO)CCN(CCc2ccccc2)C1=O`
Criterion met

Report whether reported Ki is lower than 400 nM (strictly) for `CC(C)C[C@@]1(CC(=O)NO)CCN([C@@H](Cc2ccccc2)C(=O)NCc2ccncc2)C1=O`
Criterion not met

Report whether reported Ki is lower than 400 nM (strictly) for CC(C)C[C@@]1([C@@H](CCN2C(=O)c3ccc(N)cc3C2=O)C(=O)NO)CCN(CCc2ccccc2)C1=O (relative stereo)
Criterion not met

Report whether reported Ki is lower than 400 nM (strictly) for `CC(C)(C)[C@H](NC(=O)[C@H](CCCc1ccc(Cl)cc1)CC(=O)NO)C(N)=O`
Criterion met

Report whether reported Ki is lower than 400 nM (strictly) for CC(C)C[C@@]1([C@@H](CCNC(=O)c2ccc(F)cc2)C(=O)NO)CCN(CCc2ccccc2)C1=O (relative stereo)
Criterion met

Report whether reported Ki is lower than 400 nM (strictly) for CC(C)C[C@@]1([C@@H](CCCN2C(=O)c3ccccc3C2=O)C(=O)NO)CCN(CCc2ccccc2)C1=O (relative stereo)
Criterion met

Report whether reported Ki is lower than 400 nM (strictly) for `O=C(C[C@H](NC(=O)OCc1ccccc1)c1ccccc1)Nc1n[nH]c(=S)s1`
Criterion not met

Report whether reported Ki is lower than 400 nM (strictly) for `C[C@H](NC(=O)[C@H](Cc1c[nH]c2ccccc12)NC(=O)[C@@H](CCC(=O)O)NC(=O)OC(C)(C)C)c1ccccc1`
Criterion not met

Report whether reported Ki is lower than 400 nM (strictly) for `CNC(=O)[C@@H](NC(=O)Nc1n[nH]c(=S)s1)[C@@H](C)OC(C)(C)C`
Criterion not met

Report whether reported Ki is lower than 400 nM (strictly) for O=C(Nc1n[nH]c(=S)s1)[C@@H]1CC[C@H](C(=O)N(Cc2ccccc2)OCc2ccccc2)C1 (relative stereo)
Criterion not met

Report whether reported Ki is lower than 400 nM (strictly) for `COc1ccc(S(=O)(=O)CC(CS(=O)(=O)c2ccc(OC)cc2)C(=O)NO)cc1`
Criterion met

Report whether reported Ki is lower than 400 nM (strictly) for COc1ccc(S(=O)(=O)CC(O)(CNC(=O)c2ccccc2)C(=O)NO)cc1 (centres unmarked)
Criterion met

Report whether reported Ki is lower than 400 nM (strictly) for `CC(C)(C)[C@H](NC(=O)CCc1c(F)c(F)c(F)c(F)c1F)C(=O)Nc1n[nH]c(=S)s1`
Criterion not met

Report whether reported Ki is lower than 400 nM (strictly) for CC(C)C[C@@]1([C@@H](CCN2C(=O)c3c(F)c(F)c(F)c(F)c3C2=O)C(=O)NO)CCN(CCc2ccccc2)C1=O (relative stereo)
Criterion not met

Report whether reported Ki is lower than 400 nM (strictly) for C=CC[C@H](C(=O)Nc1n[nH]c(=S)s1)[C@@H](CC(C)C)NC(=O)OCc1ccccc1 (relative stereo)
Criterion not met

Report whether reported Ki is lower than 400 nM (strictly) for CC(C)C[C@@]1([C@@H](CCN2C(=O)c3cc4ccccc4cc3C2=O)C(=O)NO)CCN(CCc2ccccc2)C1=O (relative stereo)
Criterion not met

Report whether reported Ki is lower than 400 nM (strictly) for CC(C)C[C@@]1([C@@H](CCN2Cc3cc(F)c(F)cc3C2=O)C(=O)NO)CCN(CCc2ccccc2)C1=O (relative stereo)
Criterion met

Report whether reported Ki is lower than 400 nM (strictly) for `CCC[C@@H]([C@@H](CCCc1ccccc1)C(=O)N[C@@H](CCCCNC(=O)OCc1ccccc1)C(=O)Nc1nncs1)N(O)C=O`
Criterion met

Report whether reported Ki is lower than 400 nM (strictly) for O=C(NO)C(Cc1ccccc1)CS(=O)(=O)c1ccccc1 (centres unmarked)
Criterion not met

###

Listing of pKi toward Stromelysin-1 (Homo sapiens, UniProt P08254), each taken from a published source.
pKi field: float, defined as -log10 of concentration (mol/L).

Below are worked cases with known answers.
Can you look up pKi on Stromelysin-1 (Homo sapiens, UniProt P08254) for `Cc1ccc(S(=O)(=O)CC(CS(=O)(=O)c2ccc(C)cc2)C(=O)NO)cc1` ?
6.89

Can you look up pKi on Stromelysin-1 (Homo sapiens, UniProt P08254) for CC(C)C[C@@]1([C@@H](CCCSc2cccs2)C(=O)NO)CCN(CCc2ccccc2)C1=O (relative stereo) ?
5.83

Can you look up pKi on Stromelysin-1 (Homo sapiens, UniProt P08254) for O=C(NCC[C@@H](C(=O)NO)[C@]1(CCCO)CCN(CCc2ccccc2)C1=O)c1ccc(F)c(F)c1 (relative stereo) ?
7.80

Proceed to the following item.
Can you look up pKi on Stromelysin-1 (Homo sapiens, UniProt P08254) for `CC(C)C[C@H](CC(=O)NO)C(=O)N[C@@H](Cc1c[nH]c2ccccc12)C(=O)NCCN1CCOCC1` ?
7.24

###

Listing of Ki toward Stromelysin-1 (Homo sapiens), each taken from a published source.
Okay, here is how we bin by Ki: b0 (below 200 nM), b1 (200 nM to below 900 nM), b2 (900 nM or more)

State the class of the compound shown: CC(C)C[C@@]1(CC(=O)NO)CCN([C@H](C(=O)NCC2CC2)C2CCCCC2)C1=O (relative stereo)
b1

State the class of the compound shown: `CC(=O)OC[C@](O)(C(=O)NO)[C@@H](CC(C)C)C(=O)N[C@H](C(=O)Nc1ccncc1)C(C)(C)C`
b0

State the class of the compound shown: `O=C(C[C@@H](CCCc1ccc(Cl)cc1)C(=O)N[C@@H](CC1CCCCC1)C(=O)NCCNS(=O)(=O)N1CCOCC1)NO`
b0

State the class of the compound shown: CC(C)C[C@@]1([C@@H](CCN2C(=O)c3c(F)c(F)c(F)c(F)c3C2=O)C(=O)NO)CCN(Cc2ccccc2)C1=O (relative stereo)
b2

Proceed to the following item.
State the class of the compound shown: `CC[C@H](C)[C@H](NC(=O)OCc1ccccc1)C(=O)Nc1n[nH]c(=S)s1`
b2

###

Listing of pKi toward Stromelysin-1 (Homo sapiens, UniProt P08254), each taken from a published source.
pKi field: float, defined as -log10 of concentration (mol/L).

For the compound CCCCC(NC(=O)OCc1ccccc1)C(=O)Nc1n[nH]c(=S)s1 (stereo not shown) , what pKi is on record?
5.62

For the compound CC(C)CC1(CC(=O)NO)NC(=O)N(CCc2ccccc2)C1=O (stereo not shown) , what pKi is on record?
5.32

For the compound O=C(NCC[C@@H](C(=O)NO)[C@]1(CCO)CCN(CCc2ccccc2)C1=O)c1ccc(F)c(F)c1 (relative stereo) , what pKi is on record?
6.92

For the compound `CC(C)C[C@@H](C(=O)Nc1ccccn1)N1CC[C@](CC(=O)NO)(CC(C)C)C1=O` , what pKi is on record?
6.86

For the compound CNC(=O)[C@H](Cc1ccccc1)NC(=O)[C@H](CC(C)C)[C@@](O)(COC1CCCCO1)C(=O)NO (stereo partly shown) , what pKi is on record?
6.37

For the compound `CC(C)C[C@@]1(CC(=O)NO)CCN([C@@H](Cc2ccccc2)C(=O)Nc2ccncc2)C1=O` , what pKi is on record?
7.85

For the compound `CC(C)C[C@@]1(CC(=O)NO)CCN([C@H](C(=O)Nc2ccc(F)cc2)C2CCCCC2)C1=O` , what pKi is on record?
7.72

###

Listing of pKi toward Stromelysin-1 (Homo sapiens), each taken from a published source.
pKi field: float, defined as -log10 of concentration (mol/L).

Below are worked cases with known answers.
Can you look up pKi on Stromelysin-1 (Homo sapiens) for `CC(C)(C)OC(=O)N[C@@H](Cc1ccc(NC(=O)OCc2ccccc2)cc1)C(=O)Nc1n[nH]c(=S)s1` ?
5.61

Can you look up pKi on Stromelysin-1 (Homo sapiens) for CC(C)C[C@@]1([C@@H](CCNC(=O)c2ccc(-c3ccccc3)cc2)C(=O)NO)CCN(CCc2ccccc2)C1=O (relative stereo) ?
7.42

Can you look up pKi on Stromelysin-1 (Homo sapiens) for CC(C)(C)OC(=O)NC(C(=O)Nc1n[nH]c(=S)s1)C(C)(C)/C=C/Cc1ccccc1 (stereo not drawn) ?
5.51

Can you look up pKi on Stromelysin-1 (Homo sapiens) for CC(C)C[C@@]1([C@H](NS(=O)(=O)c2ccc(F)cc2)C(=O)NO)CCN(CCc2ccccc2)C1=O (relative stereo) ?
5.68

---
Can you look up pKi on Stromelysin-1 (Homo sapiens) for `Cc1ccc(CCC[C@H](CC(=O)NO)C(=O)N[C@@H](CC2CCCCC2)C(=O)NCCCNS(=O)(=O)N(C)C)cc1` ?
8.17

Can you look up pKi on Stromelysin-1 (Homo sapiens) for O=C(NC(CSCc1ccccc1)C(=O)Nc1n[nH]c(=S)s1)OCc1ccccc1 (stereo not drawn) ?
5.02

Can you look up pKi on Stromelysin-1 (Homo sapiens) for `O=C(NCCC[C@H](NC(=O)OCc1ccccc1)C(=O)Nc1n[nH]c(=S)s1)OCc1ccccc1` ?
5.55

Can you look up pKi on Stromelysin-1 (Homo sapiens) for `CC(C)C[C@H](CC(=O)O)C(=O)N[C@@H](Cc1c[nH]c2ccccc12)C(=O)NCCc1ccc(S(N)(=O)=O)cc1` ?
4.42

Can you look up pKi on Stromelysin-1 (Homo sapiens) for `CC(C)C[C@@]1(CC(=O)NO)CCN(CCc2ccccc2)C1=O` ?
4.69

Can you look up pKi on Stromelysin-1 (Homo sapiens) for CC(C)C[C@@]1([C@@H](CCN2Cc3ccccc3C2=O)C(=O)NO)CCN(CCc2ccccc2)C1=O (relative stereo) ?
6.99

Can you look up pKi on Stromelysin-1 (Homo sapiens) for O=C(CC(NC(=O)OCc1ccccc1)c1ccccc1)Nc1nnc(S)s1 (stereo not drawn) ?
6.40

Can you look up pKi on Stromelysin-1 (Homo sapiens) for `CNC(=O)[C@@H](NC(=O)[C@H](CC(C)C)[C@](O)(COC(C)=O)C(=O)NO)C(C)(C)C` ?
6.96

Can you look up pKi on Stromelysin-1 (Homo sapiens) for `CC(C)C[C@@]1([C@@H](CCN2C(=O)c3ccc(F)cc3C2=O)C(=O)NO)CCN(CCc2ccccc2)C1=O` ?
7.24

Can you look up pKi on Stromelysin-1 (Homo sapiens) for `CC(C)C[C@@H](CC(=O)Nc1n[nH]c(=S)s1)NC(=O)OCc1ccccc1` ?
5.92

Can you look up pKi on Stromelysin-1 (Homo sapiens) for CNC(=O)[C@H](Cc1ccccc1)N1CC[C@@](CC(C)C)([C@@H](CCN2C(=O)c3ccccc3C2=O)C(=O)NO)C1=O (relative stereo) ?
6.24
